Assay: Test for acute toxicity (LD50, oral, 7 days)
Details: mouse, in vivo, mice, deaths within 7 days, 5 mice per group
Measurement Name: LD50 at 168 h

Answered examples (10):
O=C(C=Cc1ccc(Cl)cc1)N1CCCCC1 : > 1010 mg/kg
CC1COCCN1C(=O)C=Cc1ccc(C(F)(F)F)cc1 (centres unmarked) : 675 to 1010 mg/kg
O=C(C=Cc1ccc(C(F)(F)F)cc1)N1CCOCC1 : 300 to 450 mg/kg
O=C(C=Cc1ccc(Cl)c(Cl)c1)N1CCOCC1 : 450 to 675 mg/kg
CC1CCCCN1C(=O)C=Cc1ccc(F)cc1 (centres unmarked) : > 1010 mg/kg
CC1CCCCN1C(=O)C=Cc1ccc(Cl)cc1 (centres unmarked) : > 1010 mg/kg
CC1CCCC(C)N1C(=O)C=Cc1ccc(C(F)(F)F)cc1 (centres unmarked) : > 1010 mg/kg
CC1CCN(C(=O)C=Cc2ccc(C(F)(F)F)cc2)CC1 : > 1010 mg/kg
CC1CCCCN1C(=O)C=Cc1ccc(C(F)(F)F)cc1 (centres unmarked) : > 1010 mg/kg
O=C(C=Cc1ccc(Cl)cc1)N1CCOCC1 : 675 to 1010 mg/kg

Proceeding to the next compound to report its LD50 at 168 h.
What value of LD50 at 168 h has been reported for the following compound? O=C(C=Cc1ccc(F)cc1)N1CCOCC1 > 1010 mg/kg

From: patent US4962107A
